# target.or.test.system: von Willebrand factor full length (Homo sapiens, UniProt P04275 SEQ:764-2813)
# test.name: filter; 23% bound at 100 nM vWF
# cond: tags: Calbiochem 681300; label: 5'-32P
pKd: −log10 of the molar value.
measurement.type: pKd

binder	value.observed
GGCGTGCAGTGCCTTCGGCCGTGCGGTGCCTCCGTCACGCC (mixed, 2'-OMe G1 G2 G4 G6 A37 G39, 3'-idT) [ARC1235]	7.89

Ref: patent US20060264369
